system: TNF-α production in LPS stimulated RAW 264.7 cells; experiment: TNF-α assay; assay type: cell-based; details: Mus musculus, RAW264.7, 6 h, read-out: IC50 for inhibition of TNF-α RAW 264.7
pIC50: −log10 of the molar value.
Measured Quantity: pIC50

compound="CCOC(=O)c1cc(O)c(O)c(O)c1 [compound 3, ethyl gallate]" endpoint_result=4.76
compound=O=C(O)c1cc(O)c(O)c(O)c1 endpoint_result=4.62
compound=CC(/C=C/C=C(\C)C(=O)O[C@@H]1O[C@H](CO[C@@H]2O[C@H](CO)[C@@H](O)[C@H](O)[C@H]2O)[C@@H](O)[C@H](O)[C@H]1O)=C\C=C\C=C(C)\C=C\C=C(/C)C(=O)O[C@@H]1O[C@H](CO[C@@H]2O[C@H](CO)[C@@H](O)[C@H](O)[C@H]2O)[C@@H](O)[C@H](O)[C@H]1O endpoint_result=4.65
compound=O=C(O)/C=C/c1ccc(O)c(O)c1 endpoint_result=4.35
compound=CC(/C=C/C=C(\C)C(=O)O)=C\C=C\C=C(C)\C=C\C=C(/C)C(=O)O endpoint_result=4.69
compound=CC/C=C\C[C@H]1C(=O)CC[C@@H]1CC(=O)O endpoint_result=4.40
compound=N[C@@H](Cn1ccc(=O)c(O)c1)C(=O)O endpoint_result=4.60
